experiment: RAM signaling pathway blockade in yeast – S. cerevisiae, Pdr1DBD-CYC8 efflux-inhibited sensitized strain, primary screen (AID 1298);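 note: 0% = DMSO untreated cells without growth and 100% = 10 µM 1-NA-PP1 full growth; higher means more yeast growth rescued from 5-FOA killing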; conditions: S. cerevisiae cbk1-as DSE1-URA3 strain, 5-FOA growth OD615, 2 d; at 50 µM; stronger effect = higher value
ENDPOINT NAME: RAM network inhibition (%)

> print(dat)
                                   compound           endpoint.name  units  readout.value
1     Cc1c(C(=O)N2CCC(C(N)=O)CC2)sc(N)c1C#N  RAM network inhibition      %            9.2
2  COc1ccc(CCNC(=O)CC2Oc3ccc(Cl)cc3NC2=O)cc1OC (stereo unspecified)  RAM network inhibition      %           5.03
3  COc1ccccc1N1CCN(C(=O)CCCC2=NS(=O)(=O)c3ccccc3N2)CC1  RAM network inhibition      %          -0.58
4  Cc1sc2nc(SCC(=O)N(CCO)CCO)n(C3CCCCC3)c(=O)c2c1C  RAM network inhibition      %           10.7
5  Cc1cc(C)n(S(=O)(=O)c2ccc(Cl)c(Cl)c2Cl)n1  RAM network inhibition      %           3.65
6      C(=N\c1nc2ccccc2n1Cc1ccccc1)/c1cccs1  RAM network inhibition      %            4.3

###

assay: growth suppression of beta-catenin knockout HCT116, pilot screen, human colon tumor cells (AID 823); conditions: CellTiter-Glo, 60 h, at 10 µM;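 note: 0% = wells killed by 20 µM Hyamine and 100% = untreated DMSO cell wells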
Records with an inconclusive call do not appear. Active and inactive are the calls of the source.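 Rule for the calls: active = cell viability at or below a set limit in both duplicate runs, the limit being the all-compound median minus 4 SD (cut at about 23% in these data, passing the limit was not always enough); inconclusive = no clear call, values can overlap the other calls; inactive = the rest.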
Labels: Yes (active), No (inactive)

> print(dat)
                                    molecule  assigned.category
 1                  Nc1nc(SCc2ccc(Cl)cc2)ns1                 No
 2  CC1CCN(CC(C)OC(=O)c2ccc3c(c2)OCCO3)CC1 (stereo unspecified)                 No
 3         Cc1nnc(Nc2ccc3c(c2)OCO3)c2ccccc12                 No
 4  COc1ccc(N(CC(=O)NCc2cccs2)S(=O)(=O)c2c(C)nn(C)c2C)cc1                 No
 5    CCCS(=O)(=O)NCCc1cc2ccc(OC)cc2[nH]c1=O                 No
 6  CCC(=O)N1c2ccccc2-c2nnc(SC)nc2OC1c1ccc(N(C)C)cc1 (stereo unspecified)                 No
 7  CCCN(CCC)C(=O)c1ccc2c(c1)N(Cc1ccccc1)C(=O)CS2=O (stereo unspecified)                 No
 8   Cc1ccc(-c2nc(NC(=O)CSc3nnc(C)s3)ns2)cc1                 No
 9  c1ccc(-c2ccc(-c3nc(-c4ccncc4)no3)cc2)cc1                 No
10  NC(=O)CSc1oc(-c2ccc(F)cc2)nc1S(=O)(=O)c1ccccc1                 No
11                    O=C(NCc1ccco1)c1cnccn1                 No
12  O=C(NCC1CCCO1)c1ccc2c(c1)OCO2 (stereo unspecified)                 No
13  CCOc1ncccc1C(=O)OCC(=O)Nc1cc(C(=O)OC)ccc1C(=O)OC                 No
14  CCOC(=O)c1c(NC(=O)c2cc(C3CC3)on2)sc2c1CCCC2                 No
15                 CSC1=NCCN1C(=O)COc1ccccc1                 No
16  Cc1cccc(C)c1NC(=O)C1(N(Cc2ccco2)C(=O)CC2NC(=O)NC2=O)CCCCC1 (stereo unspecified)                 No
17  O=C(Nc1nnc(-c2cccs2)o1)c1cccc(C(F)(F)F)c1                Yes
18   Cc1ccc(NS(=O)(=O)c2cc(C(=O)O)ccc2Cl)cc1                 No
19  CCc1nnc(NC(=O)c2ccc(N3C(=O)CCC3=O)cc2)s1                 No
20         CCN1CCN(CC(=O)NC2CCCCC2)C(=O)C1=O                 No
21     Cc1cc2cc(CNC(=O)c3ccc(Br)o3)ccc2[nH]1                 No
22  COc1ccc(C2=NOC(C(=O)N3CCN(c4ccccc4OC)CC3)C2)cc1 (stereo unspecified)                 No
23  Cc1ccc(C(=O)Nc2cccc(C(=O)O)c2)cc1S(=O)(=O)N1CCCCC1                 No
24  CCSc1nnc2c(n1)OC(c1ccc(C(=O)O)cc1)N(C(C)=O)c1ccccc1-2 (stereo unspecified)                 No
25    Clc1ccc(OCc2nnc(-c3ccccc3Br)o2)c(Cl)c1                 No
26  Cc1onc(-c2ccccc2Cl)c1C(=O)NC1CCS(=O)(=O)C1 (stereo unspecified)                 No
27  Cc1c(NC(=O)C(C)N2C(=O)C3C4C=CC(C4)C3C2=O)c(=O)n(-c2ccccc2)n1C (stereo unspecified)                 No
28                      Nc1nnc(CCc2ccccc2)s1                 No
29  O=C(CCCSc1nc2sc3c(c2c(=O)[nH]1)CCC3)NCCCO                 No
30  O=C(NCc1ccc2c(c1)OCO2)c1nnc(Cc2ccc(Cl)cc2)o1                 No
31  CCCc1cc(=O)[nH]c(SCC(=O)N2CCN(S(=O)(=O)c3ccc(C)cc3)C2)n1                 No
32  COc1cccc(C(=O)NCC(c2cccnc2)N2CCN(c3ccccc3OC)CC2)c1 (stereo unspecified)                 No
33            O=C(Nc1ccncc1)c1ccc2c(c1)OCCO2                 No
34  CCN(CC)c1ccc(NS(=O)(=O)c2ccc3c(c2)oc(=O)n3C)c(C)c1                 No
35       COC(=O)c1ccc(-c2nc(-c3cccs3)no2)cc1                 No
36               COc1ccccc1NC(=O)c1ccc(N)cc1                 No
37  Cc1c(NC(=O)OCCSc2nc(N(C)C)nc(N(C)C)n2)sc(=S)n1C                 No
38        CC(C)(Oc1ccc(Cl)cc1)C(=O)Nc1cccnc1                 No
39  O=C(c1cc(-c2ccc(O)cc2)on1)N1CCCc2ccccc21                 No
40  COc1ccc(C2CC(C(F)(F)F)n3ncc(C(=O)O)c3N2)cc1OC (stereo unspecified)                 No
41  CN1CCN(S(=O)(=O)c2cccc(S(=O)(=O)c3ccc(Cl)c(Cl)c3)c2)CC1                 No
42  CC1CCN(C(=O)CSc2ccc3nnc(-c4cccc(F)c4)n3n2)CC1                 No
43  CC1CCc2nn(CC(=O)Nc3c(F)cc(F)cc3Br)cc2C1 (stereo unspecified)                 No
44  COC(=O)C(C(=O)OC)C(C(C)C)C(C(=O)OC)C(=O)OC                 No
45  COc1cccc(C2c3c(oc4cc(C)c(C)cc4c3=O)C(=O)N2CCCN(C)C)c1 (stereo unspecified)                 No
46  CCCC(=N)C1=C(O)CC(CC(C)SCC)CC1=O (stereo unspecified)                 No
